# Tested on: Escherichia coli
# assay: Antimicrobial activity against Escherichia coli harboring AcrAB-TolC deletion mutant after 24 hrs by two-fold broth microdilution assay
# Type: functional
Item-by-item account of MIC
measurement-name: MIC

1) CC(C)c1ccc(/C=C/C(=O)Nc2ccc(C3=NCCN3)cc2)cc1 : 25 µM
2) O=C(Nc1ccc(NC(=O)c2ccc(C3=NCCN3)cc2)cc1)c1ccc(C2=NCCN2)cc1 : 25 µM
3) O=C(/C=C/c1ccccc1Br)Nc1ccc(C2=NCCN2)cc1 : 200 µM
4) O=C(Nc1cccc(C2=NCCN2)c1)c1ccc(C(=O)Nc2cccc(C3=NCCN3)c2)cc1 : 50 µM
5) O=C(Nc1ccc(C2=NCCN2)cc1)[C@H]1CC[C@H](C(=O)Nc2ccc(C3=NCCN3)cc2)CC1 : 12.5 µM
6) CC(C)(C)c1ccc(/C=C/C(=O)Nc2ccc(C3=NCCN3)cc2)cc1 : 12.5 µM
7) O=C(Nc1ccc(C2=NCCN2)cc1)c1ccc2cc(Br)ccc2c1 : 25 µM
8) O=C(Nc1ccc(C2=NCCN2)cc1)c1ccc(C(=O)Nc2ccc(C3=NCCN3)cc2)c(Cl)c1 : 25 µM
9) O=C(/C=C/c1ccccc1Cl)Nc1ccc(C2=NCCN2)cc1 : 200 µM
10) O=C(/C=C/c1ccc(Cl)cc1)Nc1ccc(C2=NCCN2)cc1 : 50 µM

The reported measurements were obtained from ChEMBL document CHEMBL4011640.
